The entries below are paired with their reported melting point.

[
  {
    "Smiles str": "COc1cc(/C(=C\\S(=O)(=O)c2ccc(C)cc2)c2ccc(F)cc2)cc(OC)c1OC",
    "Measurement type": "melting point",
    "Test result": "141 to 143 °C"
  },
  {
    "Smiles str": "COc1cc(/C(=C\\S(=O)(=O)c2ccc(C)cc2)c2ccc(F)cc2F)cc(OC)c1OC",
    "Measurement type": "melting point",
    "Test result": "113 to 115 °C"
  },
  {
    "Smiles str": "COc1cc(/C(=C\\S(=O)(=O)c2ccc(C)cc2)c2ccc(C)c(F)c2)cc(OC)c1OC",
    "Measurement type": "melting point",
    "Test result": "124 to 126 °C"
  }
]

Okay, next one:
Input: melting point lookup needed for COc1cc(/C(=C\S(=O)(=O)c2ccc(C)cc2)c2ccc(C(F)(F)F)cc2)cc(OC)c1OC , thanks.
Output: 125 to 127 °C
